- Assayed target: HLA-A*02:12
- Assay text: IEDB peptide-MHC binding, purified MHC/direct/fluorescence; filed as Kd, often an IC50 or EC50 that approximates it; bounds were set here for any values at or beyond the usual limits of such assays
- Condition context: source organism: Rio Mearim virus
Reported property: Kd

[in] Look up Kd with HLA-A*02:12 for this sequence: DWMERIEDF
[out] ≥ 20 µM

====

- Assayed target: HLA-A*02:19
- Assay text: IEDB peptide-MHC binding, purified MHC/direct/fluorescence; filed as Kd, often an IC50 or EC50 that approximates it; bounds were set here for any values at or beyond the usual limits of such assays
- Condition context: source organism: Coxiella burnetii
Reported property: Kd

[in] Find the recorded Kd belonging to KFFMVHSLK and report it.
[out] ≥ 20 µM

====

- Assayed target: HLA-B*15:01
- Assay text: IEDB peptide-MHC binding, purified MHC/direct/fluorescence; filed as Kd, often an IC50 or EC50 that approximates it; bounds were set here for any values at or beyond the usual limits of such assays
- Condition context: source organism: Mammarenavirus juninense
Reported property: Kd

[in] Could you share which Kd value was measured for GKLDPTNTL ?
[out] ≥ 20 µM

====

- Assayed target: HLA-A*02:16
- Assay text: IEDB peptide-MHC binding, purified MHC/direct/fluorescence; filed as Kd, often an IC50 or EC50 that approximates it; bounds were set here for any values at or beyond the usual limits of such assays
- Condition context: source organism: Rickettsia bellii OSU 85-389
pKd: −log10 of the molar value.
Reported property: pKd

[in] API: value(readout=pKd, system=HLA-A*02:16) for record AKIALAVYK
[out] ≤ 4.70

====

- Assayed target: HLA-B*44:02
- Assay text: IEDB peptide-MHC binding, purified MHC/competitive/radioactivity; filed as Kd, often an IC50 or EC50 that approximates it; bounds were set here for any values at or beyond the usual limits of such assays
- Condition context: source organism: Dengue virus 3 Martinique/1243/1999
Reported property: Kd (µM)
Hi! Could you send only the number? It should be in µM, unit omitted.

[in] Sample QTWMSAEGAW — what was its Kd?
[out] 11.9

====

Listing of entries alongside the reported pKd.
- Assayed target: HLA-A*68:02
- Assay text: IEDB peptide-MHC binding, purified MHC/competitive/radioactivity; filed as Kd, often an IC50 or EC50 that approximates it; bounds were set here for any values at or beyond the usual limits of such assays
- Condition context: source organism: Vaccinia virus WR
pKd: −log10 of the molar value.

Below, each entry is followed by its recorded pKd result.
[in] Field: pKd (HLA-A*68:02). Entry: LMIFISSFLL
[out] 7.13

[in] Further, for SFSLESDSIK ?
[out] ≤ 4.16

Further cases:
[in] Provide the documented pKd with HLA-A*68:02 as the system for TFFSYLMKDK
[out] ≤ 4.16

====

- Assayed target: HLA-A*02:01
- Assay text: IEDB peptide-MHC binding, purified MHC/competitive/fluorescence; filed as Kd, often an IC50 or EC50 that approximates it; bounds were set here for any values at or beyond the usual limits of such assays
- Condition context: source organism: Cryptosporidium parvum Iowa II
Reported property: Kd

[in] Need Kd of GFPFFIMPK , thanks.
[out] ≥ 20 µM

====

- Assayed target: HLA-A*01:01
- Assay text: IEDB peptide-MHC binding, purified MHC/competitive/radioactivity; filed as Kd, often an IC50 or EC50 that approximates it; bounds were set here for any values at or beyond the usual limits of such assays
- Condition context: source organism: Triticum aestivum
Reported property: Kd

[in] Request - read-out Kd | tested on HLA-A*01:01 | sequence VVLQQHSIAY
[out] ≥ 70.4 µM
